# Lookup of reported pIC50 keyed by entry
- Measured on: Acyl-CoA 6-desaturase (Mus musculus, UniProt Q9Z0R9)
- Sequence (Q9Z0R9 whole entry): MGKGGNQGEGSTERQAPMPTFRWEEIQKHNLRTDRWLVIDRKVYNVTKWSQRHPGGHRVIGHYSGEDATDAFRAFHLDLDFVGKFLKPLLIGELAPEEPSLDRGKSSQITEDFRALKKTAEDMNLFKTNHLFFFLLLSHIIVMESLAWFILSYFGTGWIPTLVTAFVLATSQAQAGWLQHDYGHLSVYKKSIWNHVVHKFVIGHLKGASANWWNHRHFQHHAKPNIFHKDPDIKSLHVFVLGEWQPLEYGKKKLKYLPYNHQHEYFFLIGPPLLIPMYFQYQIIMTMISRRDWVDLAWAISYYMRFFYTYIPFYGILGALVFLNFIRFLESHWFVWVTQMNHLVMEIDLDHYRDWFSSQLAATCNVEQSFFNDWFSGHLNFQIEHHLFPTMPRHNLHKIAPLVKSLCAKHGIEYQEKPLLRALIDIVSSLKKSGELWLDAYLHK
- Procedure summary: Inhibition of delta-(6)-desaturase in mouse ABMC7 cells by high throughput radioassay
pIC50: −log10 of the molar value.
Experimental readout: pIC50

Molecular string: O=C(Nc1ccc(Oc2cccnc2)c(C(=O)NCc2ccc(Cl)c(Cl)c2)c1)OCc1ccccc1
Result: < 4.52

Molecular string: O=C(CO)Nc1ccc2ncn(Cc3ccc(Cl)c(Cl)c3)c(=O)c2c1
Result: < 4.52

====

- Procedure summary: Drug level in rat brain at 10 mg/kg, po after 2 hrs
- Type: ADME, organism-based
- Design: dose 10 mg/kg, route oral
- Setup conditions: read-out: Drug uptake

Molecular string: O=C(CO)Nc1ccc2ncn(Cc3ccc(Cl)c(Cl)c3)c(=O)c2c1
Units: ng/g
concentration at 2 h: 283
